Target: UniProtKB P05804
Experiment: Inhibition of purified recombinant eβG activity (pNPG substrate, OD420)
Assay type: biochemical
Settings: read-out: Percent activity of E. coli-glucuronidase at 10 μM (%)
Below, each entry is listed with its recorded remaining activity at 10 µM.
I only need the number, in %, no unit after it.

Cc1ccc(Nc2nc3ccccc3c3[nH]nc(N)c23)cc1: 4.5
Nc1n[nH]c2c1c(Nc1ccccc1O)nc1ccccc12: 7
Nc1n[nH]c2c1c(Nc1ccc(Cl)cc1)nc1cc(F)ccc12: 4
COc1ccc(NC(=O)Nc2n[nH]c3c2c(Nc2ccc(C)cc2)nc2ccccc23)cc1: 3.5
O=C(Nc1ccccc1)Nc1n[nH]c2c1c(=O)[nH]c1ccccc12: 86
Cc1ccc(Nc2nc3ccccc3c3[nH]nc(NC(=O)Nc4ccccc4)c23)cc1: 3

Here is the next item to consider.
Ask: Endpoint output: remaining activity at 10 µM of `Nc1n[nH]c2c1c(Nc1ccccc1Cl)nc1ccccc12` . Value?
Reply: 29.7

---

Counter-ions that a name gives are not always drawn.
Below, each entry is listed with its recorded melting point.

The examples below pair each entry with its known result.
CC(=O)c1cccc(Nc2nc3ccccc3c3[nH]nc(N)c23)c1: > 380 °C
Nc1n[nH]c2c1c(Nc1ccc(Cl)cc1)nc1ccc(Cl)cc12 (as salt: salt): 270 to 272 °C
COc1ccc(NC(=O)Nc2n[nH]c3c2c(=O)[nH]c2ccccc23)cc1: 224 to 225 °C
COc1ccccc1Nc1nc2ccccc2c2[nH]nc(N)c12: 210 to 211 °C
COc1ccc(NC(=O)Nc2n[nH]c3c2c(Nc2ccc(Cl)cc2)nc2ccccc23)cc1: 211 to 212 °C
Nc1n[nH]c2c1c(Nc1ccccc1O)nc1ccccc12: 156 to 157 °C
Cc1ccc(Nc2nc3cc(F)ccc3c3[nH]nc(N)c23)cc1 (as salt: salt): 246 to 247 °C
Nc1n[nH]c2c1c(Nc1ccc(Cl)cc1)nc1cc(F)ccc12: 254 °C (dec.)

Ask: Endpoint output: melting point of `COc1ccc(Nc2nc3ccccc3c3[nH]nc(N)c23)cc1` . Value?
Reply: 228 to 230 °C

---

Target: human liver-glucuronidase (hβG) (Homo sapiens, UniProt P08236)
Sequence (P08236 23-651): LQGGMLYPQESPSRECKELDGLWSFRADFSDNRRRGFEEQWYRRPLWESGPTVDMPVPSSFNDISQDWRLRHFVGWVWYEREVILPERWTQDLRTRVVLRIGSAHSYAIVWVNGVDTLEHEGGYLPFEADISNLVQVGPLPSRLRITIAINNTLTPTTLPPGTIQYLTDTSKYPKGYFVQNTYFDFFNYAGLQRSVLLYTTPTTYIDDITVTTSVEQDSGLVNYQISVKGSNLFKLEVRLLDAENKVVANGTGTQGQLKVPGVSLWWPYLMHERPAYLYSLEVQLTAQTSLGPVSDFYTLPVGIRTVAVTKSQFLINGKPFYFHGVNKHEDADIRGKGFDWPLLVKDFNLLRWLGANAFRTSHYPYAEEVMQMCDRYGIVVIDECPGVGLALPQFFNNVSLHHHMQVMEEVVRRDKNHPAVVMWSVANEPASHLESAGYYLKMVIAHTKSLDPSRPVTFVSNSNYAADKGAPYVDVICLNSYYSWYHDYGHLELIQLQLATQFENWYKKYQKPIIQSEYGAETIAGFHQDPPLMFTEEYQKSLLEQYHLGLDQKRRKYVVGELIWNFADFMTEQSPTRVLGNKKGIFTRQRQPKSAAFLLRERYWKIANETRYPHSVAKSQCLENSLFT
Experiment: Inhibition of purified recombinant hβG activity (pNPG substrate, OD420)
Assay type: biochemical
Conditions: 10 μM; purified recombinant hβG, pNPG; means ± S.D. of at least three separate experiments; read-out: Percent activity of human liver-glucuronidase at 10 μM (%)
ENDPOINT LABEL: remaining activity at 10 µM (%)
I only need the number, in %, no unit after it.

The examples below pair each entry with its known result.
Cc1ccc(Nc2nc3cc(F)ccc3c3[nH]nc(N)c23)cc1: 81.5
Nc1n[nH]c2c1c(Nc1ccccc1Cl)nc1ccccc12: 79.8
O=C(Nc1ccccc1)Nc1n[nH]c2c1c(=O)[nH]c1ccccc12: 82

Ask: Endpoint output: remaining activity at 10 µM of `Cc1ccc(Nc2nc3ccccc3c3[nH]nc(NC(=O)Nc4ccccc4)c23)cc1` . Value?
Reply: 82

Ask: Endpoint output: remaining activity at 10 µM of `Nc1ccc(Nc2nc3ccccc3c3[nH]nc(N)c23)cc1` . Value?
Reply: 82.5

---

Target: E. coli β-glucuronidase (eβG) (Escherichia coli, UniProt P05804)
Sequence (P05804 whole entry): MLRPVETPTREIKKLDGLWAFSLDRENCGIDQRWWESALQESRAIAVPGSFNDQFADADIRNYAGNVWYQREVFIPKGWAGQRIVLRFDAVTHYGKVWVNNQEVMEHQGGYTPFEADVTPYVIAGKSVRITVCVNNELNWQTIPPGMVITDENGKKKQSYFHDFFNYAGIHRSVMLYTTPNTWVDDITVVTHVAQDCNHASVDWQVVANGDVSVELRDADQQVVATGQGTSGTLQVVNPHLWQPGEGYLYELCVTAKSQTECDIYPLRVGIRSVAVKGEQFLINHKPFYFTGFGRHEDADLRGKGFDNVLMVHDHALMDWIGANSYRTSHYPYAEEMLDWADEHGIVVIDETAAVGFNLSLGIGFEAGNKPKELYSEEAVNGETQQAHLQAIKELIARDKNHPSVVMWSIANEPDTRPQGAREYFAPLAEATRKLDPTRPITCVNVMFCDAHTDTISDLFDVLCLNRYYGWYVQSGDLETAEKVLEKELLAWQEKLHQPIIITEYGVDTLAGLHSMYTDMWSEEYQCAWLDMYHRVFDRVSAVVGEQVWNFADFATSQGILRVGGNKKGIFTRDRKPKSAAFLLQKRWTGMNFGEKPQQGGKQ
Assay: Inhibition of purified recombinant eβG activity (pNPG substrate, OD420)
Assay type: biochemical
Details: read-out: Percent activity of E. coli-glucuronidase at 10 μM (%)
Below, each entry is listed with its recorded remaining activity at 10 µM.
I only need the number, in %, no unit after it.

COc1ccc(NC(=O)Nc2n[nH]c3c2c(Nc2ccc(Cl)cc2)nc2ccccc23)cc1: 4
Cc1cccc2c1nc(Nc1ccc(Cl)cc1)c1c(N)n[nH]c12: 6
Nc1ccc(Nc2nc3ccccc3c3[nH]nc(N)c23)cc1: 8
CC(=O)c1ccc(Nc2nc3ccccc3c3[nH]nc(N)c23)cc1: 3
Nc1n[nH]c2c1c(Nc1ccc(Cl)cc1)nc1ccccc12: 4.5

Ask: Endpoint output: remaining activity at 10 µM of `CC(=O)c1cccc(Nc2nc3ccccc3c3[nH]nc(N)c23)c1` . Value?
Reply: 91

Taken from patent US11052072B2.
